- Assay Info: yeast display, Sf9 membrane polyspecificity reagent, FACS + sequencing; frameworks hold sequencing errors
Observed Property: polyreactivity (PSR sort gate)

The cases that follow already have their polyreactivity (PSR sort gate) on record.
>  <Seq Text>
QVQLVESGGGLVQAGGSLRLSCAASGIIFSSNVMGWYRQAPGKERELVAAISRSGDRSYYADSVKGRFTISRDNAKITVYLQMNSLKPEDTAVYYCAGRVRVNVVSNGYWGQGTQVTVSS

>  <polyreactivity (PSR sort gate)>
high polyreactivity

$$$$
>  <Seq Text>
QVQLVESVGGLVQAGGSLRLICAASGSIFVPNTMGWYRQAPGKERELVAAINISGGNTYYADSVKGRFTISRDNAKNTVYLQMNSLKPEDTAVYYCAAVWFKVWSFAGDWGQGTQVTVSS

>  <polyreactivity (PSR sort gate)>
low polyreactivity

$$$$
>  <Seq Text>
QVQLVESGGGLVPAGGSLRLSCAASGFTFGVYAMGWYRQAPGKERELVAAITWSGGRTYYADSVKGRFTISRDNAKNSVYLQMNSLKPEDTAVYYCAAGFYRYNAVRYDYWGQGTQVTVSS

>  <polyreactivity (PSR sort gate)>
high polyreactivity

$$$$
>  <Seq Text>
QVQLVESGGGLVQAGGSLRLSCAASGSNLSAYAMGWYRQAPGKERELVAAISWSGGSTYYADSVKGRFTISRDNAKNTVYFQMNSLKPEDTAVYYCATVNKKWRRYDYWGQGSQVTVSS

>  <polyreactivity (PSR sort gate)>
high polyreactivity

$$$$
>  <Seq Text>
QVQLVESGGGLVQAGGSLRLSCAASGFTFDFYAMGWYRQAPGKERELVADISSSDGSTYADSVKGRFTISRDNAKNTVYLQMNSLKPEDTAVYYCAADYDNQYDFSLDDEYWGQGTQVTVSS

>  <polyreactivity (PSR sort gate)>
low polyreactivity

$$$$

Consider the sequence QVQLVESGGGLVQAGGSLRLSCAASGSIFARYAIGWYRQAPGKERELVAAISSDGSTYYADSVKGRFTISRDNAKNTVYLQMNSLKPEDTAVYYCAARAFYYAGDWYGYWGQGTQVTVSS and give its recorded polyreactivity (PSR sort gate). high polyreactivity

Consider the sequence QVQHVESGGGLVQAGGSLRLSCAASGSILGWYAMGWYRQAPGKERELDAAITTAGDSTYYADSVKGRFTISRDNAKNTVYLPLNSLKPEDTAVYYCATRYQVRRGSGPSYDYWGQGTQVTVSS and give its recorded polyreactivity (PSR sort gate). high polyreactivity

Consider the sequence QVQLVESGGGLVQAGGSLRLSCAASGLTFNFYAMGWYRQAPGKEREFVAAISRSGGSTHYADSVKGRFTISRDNAKYTVYLQMNSLKPEDTAVYYCAADGGRKNYDYWGQGTQVTVSS and give its recorded polyreactivity (PSR sort gate). high polyreactivity

Consider the sequence QVHLVESGGGLVQAGGSLRLSCAASGFTFGHYAMGWYRQAPGKERELVAAITYRGGSTYYADSVKGRFTISRDNAKNTVYLQMNSLKPEDTAVYYCNADRRYKVYFAQNGHYDYWGQGTQVTVSS and give its recorded polyreactivity (PSR sort gate). high polyreactivity

Consider the sequence QVQLVESGGGLVHAGGSLRLSCAASGRTFNWNAMGWYRQEPGKEREFVASINGGGSSYYADSVKGRFTISRDNAKNTVYLQMNSLKPDDTAVYYCAAPWVGTFVSGRCYYWGQGTHVTVSS and give its recorded polyreactivity (PSR sort gate). low polyreactivity

Consider the sequence QVQLVESGGGLVQAGGSLRLSCAASGSSKLRLWDGIDRRLGQKGSWLPLFVLVVLRNYADSVKGRFTISSDNAKNTVYLQMNSLKPEDTAVYYCAATPIGSGGWGDYWGQGTQVTVSS and give its recorded polyreactivity (PSR sort gate). low polyreactivity

// provenance: the nanobody polyreactivity screen of Harvey et al. (2022)
